We begin with a simple list: items and their reported inhibition at 0.1 µM.
System Name: BTK (Homo sapiens (Human))
Sequence (Q06187 whole entry): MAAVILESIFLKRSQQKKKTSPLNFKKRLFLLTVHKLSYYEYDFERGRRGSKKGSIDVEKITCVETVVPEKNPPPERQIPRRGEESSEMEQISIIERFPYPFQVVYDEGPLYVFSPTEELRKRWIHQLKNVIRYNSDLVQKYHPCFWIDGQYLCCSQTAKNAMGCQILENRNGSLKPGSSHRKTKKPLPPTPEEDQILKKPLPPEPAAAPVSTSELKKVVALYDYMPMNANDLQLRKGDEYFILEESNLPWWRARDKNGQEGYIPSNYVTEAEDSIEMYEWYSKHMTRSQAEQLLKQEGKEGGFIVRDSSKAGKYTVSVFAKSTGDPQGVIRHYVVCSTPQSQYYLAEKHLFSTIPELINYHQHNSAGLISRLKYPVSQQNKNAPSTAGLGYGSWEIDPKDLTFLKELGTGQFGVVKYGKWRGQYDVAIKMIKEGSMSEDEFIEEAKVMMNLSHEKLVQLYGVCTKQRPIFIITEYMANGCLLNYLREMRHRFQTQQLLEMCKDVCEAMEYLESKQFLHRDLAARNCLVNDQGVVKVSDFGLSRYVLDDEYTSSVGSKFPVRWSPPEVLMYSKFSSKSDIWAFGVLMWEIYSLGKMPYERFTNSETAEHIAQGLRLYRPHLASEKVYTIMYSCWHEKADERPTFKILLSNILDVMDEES
Protocol Notes: Z'-LYTE kinase inhibition assay against BTK
Type: biochemical
Cond: compound at 100 nM; ATP concentration at Km
Readout Label: inhibition at 0.1 µM

1. C=CC(=O)N1CCC(c2nc(-c3ccc(Oc4cc(C(F)(F)F)ccn4)cc3)n3c(N)nccc23)C1 (centres unmarked) :: > 50%
2. C=CC(=O)N1CCC(c2cc(-c3ccc(C(=O)Nc4ccccn4)cc3)n3cnccc23)C1 (centres unmarked) :: < 50%
3. C=CC(=O)N1CCCC(c2cc(-c3cccnc3)cc3cncnc23)C1 (centres unmarked) :: < 50%
4. C=CC(=O)N1CCC(c2cc(-c3ccc(C(=O)Nc4cc(C#N)ccn4)c(F)c3)n3cnccc23)C1 (centres unmarked) :: < 50%
5. C=CC(=O)N1CCC(c2cc(-c3ccc(Oc4cc(C(F)(F)F)ccn4)cc3)c(N)c3cncnc23)C1 (centres unmarked) :: < 50%
6. C=CC(=O)N1CCC(n2c(-c3ccccc3)nc3cnc(N)nc32)C1 (centres unmarked) :: < 50%
7. C=CC(=O)N1CCC(c2nc(-c3ccc(Oc4ncccc4C(F)(F)F)cc3)n3c(N)nccc23)C1 (centres unmarked) :: > 50%
8. C=CC(=O)Nc1cccc(-c2cc(-c3ccc(Oc4ccc(Cl)cc4)nc3)cc3cncnc23)c1 :: < 50%
9. C=CC(=O)N1CCC(c2cc(-c3ccc(Oc4ccccn4)cc3F)c(N)c3cncnc23)C1 (centres unmarked) :: < 50%
10. C=CC(=O)Nc1cccc(-c2cc(-c3ccc(Oc4ccccc4)cc3)c(N)c3cncnc23)c1 :: < 50%
11. C=CC(=O)Nc1cccc(-c2cc(-c3ccccc3C#N)cc3cnc(N)nc23)c1 :: > 50%
12. C=CC(=O)N1CCC(c2cc(-c3ccc(C(=O)Nc4cc(C5CC5)ccn4)cc3F)n3cnccc23)C1 (centres unmarked) :: < 50%
13. C=CC(=O)Nc1cccc(-c2cc(-c3cncc(OC)c3)cc3cnc(N)nc23)c1 :: > 50%
14. CC#CC(=O)N1CCC(c2nc(-c3ccc(Oc4ccccn4)c(OC)c3)n3c(N)nccc23)C1 (centres unmarked) :: > 50%
15. C=CC(=O)Nc1cccc(-c2cc(-c3ccc(C(=O)Nc4ccccn4)cc3)cc3cnc(N)nc23)c1 :: < 50%
16. C=CC(=O)N1CCC(n2c(-c3ccccc3F)nc3cncnc32)C1 (centres unmarked) :: < 50%
17. C=CC(=O)N1CCC(c2cc(-c3ccc(C(=O)Nc4cccc(C(F)(F)F)c4)nc3)cc3cncnc23)C1 (centres unmarked) :: < 50%
